Provide the recorded activity at 10 µM for the entries that follow.
# Assay system: CYP1A2 (Homo sapiens, UniProt P05177)
# Sequence (P05177 whole entry): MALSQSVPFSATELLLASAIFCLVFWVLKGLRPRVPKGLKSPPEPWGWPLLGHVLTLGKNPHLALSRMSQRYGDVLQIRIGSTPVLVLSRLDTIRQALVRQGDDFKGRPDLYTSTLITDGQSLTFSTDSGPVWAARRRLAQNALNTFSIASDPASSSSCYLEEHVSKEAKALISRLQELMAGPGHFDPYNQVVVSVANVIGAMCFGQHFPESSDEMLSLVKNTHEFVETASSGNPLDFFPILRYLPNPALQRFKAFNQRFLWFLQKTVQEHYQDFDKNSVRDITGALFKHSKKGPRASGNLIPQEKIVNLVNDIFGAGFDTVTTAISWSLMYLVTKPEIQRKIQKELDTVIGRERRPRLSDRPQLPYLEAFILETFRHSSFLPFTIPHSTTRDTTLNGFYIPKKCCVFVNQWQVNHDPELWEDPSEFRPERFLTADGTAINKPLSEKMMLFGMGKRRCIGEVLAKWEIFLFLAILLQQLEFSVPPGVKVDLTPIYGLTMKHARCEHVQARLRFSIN
# Protocol description: Inhibition of CYP1A2 (unknown origin) assessed as enzyme activity at 10 uM relative to control
# Type: ADME
# Set-up: scale not given: the % may be the effect or the level left
# Cond: read-out: Activity
Give the number; % is assumed, so skip it.

// query Can you look up the measured activity at 10 µM of COc1ccnc(S(=O)(=O)/C=C/c2ncccc2Cl)c1 for me?
// result 69.9

// query Another molecule to look at: COc1ccnc(S(=O)(=O)/C=C/c2ccc(Cl)cn2)c1
// result 33.3

// query Can you handle COc1ccnc(S(=O)(=O)/C=C/c2ccccc2Cl)c1 next?
// result 28.5
